# Kp annotations
assay: Colon and plasma mouse pharmacokinetics; format: in vivo; conditions: mouse, colon tissue / plasma; male Balb/c mice, 10 mg/kg PO; ratio of the colon AUC to the plasma AUC

Field: example entries. Status: answers known.
- compound: "C=CC(=O)N1CC(CCn2c(=O)ccc3cnc(Nc4cccc(N5CCN(C(=O)CSC)CC5)c4)nc32)C1 [Example 107]"
  reported.property: "Kp"
  reported.value: "> 50"
- compound: "C=CC(=O)N1CC(C(C)Cn2c(=O)ccc3cnc(Nc4ccc(N5CCN(C(C)=O)CC5)cc4)nc32)C1 (stereo not drawn) [Example 156]"
  reported.property: "Kp"
  reported.value: "> 14"
- compound: "C=CC(=O)N1CCN(CCn2c(=O)ccc3cnc(Nc4ccc(N5CCN(C(=O)CSC)CC5)cc4)nc32)CC1 [Example 150]"
  reported.property: "Kp"
  reported.value: "> 100"
- compound: "C=CC(=O)N1CC(CCn2c(=O)ccc3cnc(Nc4cccc(CN5CCN(C(=O)COC)CC5)c4)nc32)C1 [Example 112]"
  reported.property: "Kp"
  reported.value: "> 100"
- compound: "C=CC(=O)N1CC(CCn2c(=O)ccc3cnc(Nc4cccc(CN5CCN(C(C)=O)CC5)c4)nc32)C1 [Example 133]"
  reported.property: "Kp"
  reported.value: "> 100"
- compound: "C=CC(=O)N1CCN(CCn2c(=O)ccc3cnc(Nc4ccc(N5CCSCC5)cc4)nc32)CC1 [Example 38]"
  reported.property: "Kp"
  reported.value: "> 1000"
- compound: "C=CC(=O)N1CC(CCn2c(=O)ccc3cnc(Nc4cccc(CN5CCN(C)CC5)c4)nc32)C1 [Example 52]"
  reported.property: "Kp"
  reported.value: "> 100"
- compound: "C=CC(=O)N1CC(CCn2c(=O)ccc3cnc(Nc4cccc(CN5CCN(S(C)(=O)=O)CC5)c4)nc32)C1 [Example 6]"
  reported.property: "Kp"
  reported.value: "> 100"

I would be grateful if you could share the reported Kp for C=CC(=O)N1CC(CCn2c(=O)ccc3cnc(Nc4ccc(CN5CCOCC5)cc4)nc32)C1 [Example 44] .
> 50

Field entry: C=CC(=O)N1CC(CCn2c(=O)ccc3cnc(Nc4cccc(CN5CCN(C(=O)N(C)C)CC5)c4)nc32)C1 [Example 5]
> 100

Field entry: C=CC(=O)N1CC(CCn2c(=O)ccc3cnc(Nc4cccc(CN5CCOCC5)c4)nc32)C1 [Example 27]
> 100

Field entry: C=CC(=O)N1CC(CCn2c(=O)ccc3cnc(Nc4cnn(CCOC(C)C)c4)nc32)C1 [Example 24]
> 100

Field entry: C=CC(=O)N1CC(CCn2c(=O)ccc3cnc(Nc4ccc(N5CCN(C(C)=O)CC5)cc4)nc32)C1 [Example 2]
> 100

Field entry: C=CC(=O)N1CC(CCn2c(=O)ccc3cnc(Nc4cccc(CN5CCN(C(=O)CCSC)CC5)c4)nc32)C1 [Example 110]
> 1000

Field entry: C=CC(=O)N1CCN(CCn2c(=O)ccc3cnc(Nc4ccc(N5CCN(C(=O)CCSC)CC5)cc4)nc32)[C@@H](C)C1 [Example 171]
> 1000

----------
# Kp annotations
Experiment: Colon and plasma mouse pharmacokinetics
Assay type: in vivo
Conditions: mouse, colon tissue / plasma; male Balb/c mice, 10 mg/kg PO; ratio of the colon AUC to the plasma AUC
Protocol: Assay 5: Colon and Plasma Mouse Pharmacokinetics To 6 male Balb/c mice was administered 10 mg/kg of compound in 1% HPMC+0.1% Tween-80 by PO administration. […] Blood samples were collected into K2EDTA and stored on wet ice until processed to plasma by centrifugation (12000 rpm at 4° C.). […] All samples were analyzed using LC/MS/MS against analytical standards. […] A colon to plasma ratio was determined as the ratio of the colon AUC to the plasma AUC.

Field: example entries. Status: answers known.
- given.smiles: "C=CC(=O)N1CCN(CCn2c(=O)ccc3cnc(Nc4ccc(N5CCN(C(=O)CSC)CC5)cc4)nc32)[C@@H](C)C1"
  reported.value: "> 100"
- given.smiles: "C=CC(=O)N1CC(CCn2c(=O)ccc3cnc(Nc4ccc(CCN(C)C)cc4)nc32)C1"
  reported.value: "> 100"
- given.smiles: "C=CC(=O)N1CC(CCn2c(=O)ccc3cnc(Nc4cccc(N5CCN(C)CC5)c4)nc32)C1"
  reported.value: "> 50"

Could you now consider this next molecule?
I would be grateful if you could share the reported Kp for C=CC(=O)N1CC(CCn2c(=O)ccc3cnc(Nc4cccc(N5CCN(C(=O)CCSC)CC5)c4)nc32)C1 .
> 100

Origin of the recorded values: patent US11697648B2
